Consider the following compounds; for each one, report its viability, T/C.
# Tested on: SUM149PT spheroids with HUVEC/MSC, viability
# test-details: Anticancer human tumor SUM149PT cell line growth inhibition [GQUAD];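 also: spheroids exposed to drugs for seven days before readout; percent viability relative to DMSO vehicle control taken as 100%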
# measurement-setup: second compound 3.16 µM; first compound 1 µM; stronger effect = lower value

Qu. Supply viability, T/C value. Item: Cc1cccc(N(C)C(=O)C2C(O)CCN2c2nc(C)cc(C(F)(F)F)c2C#N)c1 (stereo unspecified) + CN(C)c1ccc(Nc2c3ccc(NC(=O)CCN4CCCC4)cc3nc3cc(NC(=O)CCN4CCCC4)ccc23)cc1
Ans. 77.1%

Qu. Supply viability, T/C value. Item: CC(C)(O)C1CCC(Nc2ccc3ncc(-c4cccc(C(F)(F)F)c4)n3n2)CC1 (stereo unspecified) + Cc1[nH]c2ccc(F)cc2c1-c1nc2c3cccnc3c3ncccc3c2[nH]1
Ans. 70%

Qu. Supply viability, T/C value. Item: CC1COCCN1c1cc(C2(O)CC3CCC(C2)O3)c2cnn(-c3ccn[nH]3)c2n1 (stereo unspecified) + Cc1[nH]c2ccc(F)cc2c1-c1nc2c3cccnc3c3ncccc3c2[nH]1
Ans. 25.8%

Qu. Supply viability, T/C value. Item: CCCS(=O)(=O)Nc1ccc(F)c(C(=O)c2c[nH]c3ncc(-c4ccc(Cl)cc4)cc23)c1F + CN(C)c1ccc(Nc2c3ccc(NC(=O)CCN4CCCC4)cc3nc3cc(NC(=O)CCN4CCCC4)ccc23)cc1
Ans. 81.7%

Qu. Supply viability, T/C value. Item: C=CCn1c(=O)c2cnc(Nc3ccc(N4CCN(C)CC4)cc3)nc2n1-c1cccc(C(C)(C)O)n1 + Cc1[nH]c2ccc(F)cc2c1-c1nc2c3cccnc3c3ncccc3c2[nH]1
Ans. 20.3%

Qu. Supply viability, T/C value. Item: COc1cc(C2c3cc4c(cc3C(OC3OC5COC(C)OC5C(O)C3O)C3COC(=O)C23)OCO4)cc(OC)c1O (stereo unspecified) + Cc1[nH]c2ccc(F)cc2c1-c1nc2c3cccnc3c3ncccc3c2[nH]1
Ans. 49.3%

Qu. Supply viability, T/C value. Item: CCCS(=O)(=O)Nc1ccc(F)c(C(=O)c2c[nH]c3ncc(-c4ccc(Cl)cc4)cc23)c1F + Cc1[nH]c2ccc(F)cc2c1-c1nc2c3cccnc3c3ncccc3c2[nH]1
Ans. 109%

Qu. Supply viability, T/C value. Item: O=C(NO)c1cnc(N2CCN(S(=O)(=O)c3ccc4ccccc4c3)CC2)nc1 + Cc1[nH]c2ccc(F)cc2c1-c1nc2c3cccnc3c3ncccc3c2[nH]1
Ans. 38.8%

Qu. Supply viability, T/C value. Item: CC1COCCN1c1cc(C2(O)CC3CCC(C2)O3)c2cnn(-c3ccn[nH]3)c2n1 (stereo unspecified) + CN(C)c1ccc(Nc2c3ccc(NC(=O)CCN4CCCC4)cc3nc3cc(NC(=O)CCN4CCCC4)ccc23)cc1
Ans. 22.6%

Qu. Supply viability, T/C value. Item: O=C(NO)c1cnc(N2CCN(S(=O)(=O)c3ccc4ccccc4c3)CC2)nc1 + Cc1cnc(CNC(=O)c2c(=O)c3ccc(N4CCCN(C)CC4)nc3n3c2sc2ccccc23)cn1
Ans. 0.11%

Qu. Supply viability, T/C value. Item: COc1ccc([C@@H](O)c2cc(-c3ncnc4cc(N5CCOCC5)ccc34)c(F)cc2Cl)nn1 + Cc1cnc(CNC(=O)c2c(=O)c3ccc(N4CCCN(C)CC4)nc3n3c2sc2ccccc23)cn1
Ans. 20.7%
